target: UniProt P26358
Sequence (P26358 whole entry): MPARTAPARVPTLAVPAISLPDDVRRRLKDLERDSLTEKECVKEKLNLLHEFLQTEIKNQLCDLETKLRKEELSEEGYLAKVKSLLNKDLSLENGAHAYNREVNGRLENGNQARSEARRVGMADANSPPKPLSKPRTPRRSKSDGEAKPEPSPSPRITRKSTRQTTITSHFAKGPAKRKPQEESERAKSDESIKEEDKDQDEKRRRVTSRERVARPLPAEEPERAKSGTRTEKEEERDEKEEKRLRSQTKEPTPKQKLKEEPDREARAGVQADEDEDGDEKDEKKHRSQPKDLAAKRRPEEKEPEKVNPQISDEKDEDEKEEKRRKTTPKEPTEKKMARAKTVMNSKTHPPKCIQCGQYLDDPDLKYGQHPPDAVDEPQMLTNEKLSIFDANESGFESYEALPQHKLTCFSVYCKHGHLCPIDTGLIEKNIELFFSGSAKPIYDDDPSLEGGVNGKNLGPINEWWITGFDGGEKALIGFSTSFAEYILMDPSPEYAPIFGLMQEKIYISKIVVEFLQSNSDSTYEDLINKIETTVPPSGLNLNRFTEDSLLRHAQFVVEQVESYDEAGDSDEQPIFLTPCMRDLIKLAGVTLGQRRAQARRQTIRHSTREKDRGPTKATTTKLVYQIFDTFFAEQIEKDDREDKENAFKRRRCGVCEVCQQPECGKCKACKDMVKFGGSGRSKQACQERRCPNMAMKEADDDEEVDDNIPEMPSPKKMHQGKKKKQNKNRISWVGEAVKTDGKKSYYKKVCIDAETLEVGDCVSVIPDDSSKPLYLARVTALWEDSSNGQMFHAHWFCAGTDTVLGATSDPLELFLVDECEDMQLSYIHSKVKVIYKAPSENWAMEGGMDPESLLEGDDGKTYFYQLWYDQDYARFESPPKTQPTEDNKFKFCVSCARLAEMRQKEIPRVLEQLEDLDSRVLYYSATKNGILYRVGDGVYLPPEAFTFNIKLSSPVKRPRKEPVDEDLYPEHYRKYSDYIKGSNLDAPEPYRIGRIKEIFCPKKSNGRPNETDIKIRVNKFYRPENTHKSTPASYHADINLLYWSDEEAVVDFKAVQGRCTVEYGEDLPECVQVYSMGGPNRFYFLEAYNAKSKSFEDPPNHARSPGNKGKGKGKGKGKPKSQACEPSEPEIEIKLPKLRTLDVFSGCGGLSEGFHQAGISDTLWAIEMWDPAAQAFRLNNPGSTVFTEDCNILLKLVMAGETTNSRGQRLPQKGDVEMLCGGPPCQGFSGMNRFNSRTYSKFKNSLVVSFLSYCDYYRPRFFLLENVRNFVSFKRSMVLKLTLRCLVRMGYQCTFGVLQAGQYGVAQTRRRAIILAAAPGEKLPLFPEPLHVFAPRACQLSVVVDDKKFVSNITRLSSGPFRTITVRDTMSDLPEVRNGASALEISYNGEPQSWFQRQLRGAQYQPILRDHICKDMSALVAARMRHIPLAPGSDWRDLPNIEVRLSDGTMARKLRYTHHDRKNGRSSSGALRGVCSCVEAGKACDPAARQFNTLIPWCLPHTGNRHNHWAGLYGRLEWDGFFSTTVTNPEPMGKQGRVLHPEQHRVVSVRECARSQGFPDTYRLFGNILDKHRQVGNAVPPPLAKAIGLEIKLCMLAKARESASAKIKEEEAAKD
PROPERTY_NAME: IC50 (µM)
The response must be a number in µM with no trailing unit.

As a guide, the following entries are already answered.
{"columns": ["CHEMICAL_SMILES", "UNIT_SYMBOL", "IC50"],
 "data": [
  ["COc1cc2c(cc1OC)-c1c(C)c3cc(OC)c(OC)cc3c[n+]1CC2", "µM", 16.3],
  ["CCN1C[C@H](NC(=O)c2cc3cc(Cl)ccc3[nH]2)[C@@H](OC)C1", "µM", 0.0018]
]}

Now look at this one.
So what's the measured IC50 for this one? `Cc1ccc(SS(=O)(=O)c2ccc(C)cc2)cc1`
3.06
